Target: guinea pig liver transglutaminase (Cavia cutleri, UniProt P08587)
Sequence (P08587 1-690): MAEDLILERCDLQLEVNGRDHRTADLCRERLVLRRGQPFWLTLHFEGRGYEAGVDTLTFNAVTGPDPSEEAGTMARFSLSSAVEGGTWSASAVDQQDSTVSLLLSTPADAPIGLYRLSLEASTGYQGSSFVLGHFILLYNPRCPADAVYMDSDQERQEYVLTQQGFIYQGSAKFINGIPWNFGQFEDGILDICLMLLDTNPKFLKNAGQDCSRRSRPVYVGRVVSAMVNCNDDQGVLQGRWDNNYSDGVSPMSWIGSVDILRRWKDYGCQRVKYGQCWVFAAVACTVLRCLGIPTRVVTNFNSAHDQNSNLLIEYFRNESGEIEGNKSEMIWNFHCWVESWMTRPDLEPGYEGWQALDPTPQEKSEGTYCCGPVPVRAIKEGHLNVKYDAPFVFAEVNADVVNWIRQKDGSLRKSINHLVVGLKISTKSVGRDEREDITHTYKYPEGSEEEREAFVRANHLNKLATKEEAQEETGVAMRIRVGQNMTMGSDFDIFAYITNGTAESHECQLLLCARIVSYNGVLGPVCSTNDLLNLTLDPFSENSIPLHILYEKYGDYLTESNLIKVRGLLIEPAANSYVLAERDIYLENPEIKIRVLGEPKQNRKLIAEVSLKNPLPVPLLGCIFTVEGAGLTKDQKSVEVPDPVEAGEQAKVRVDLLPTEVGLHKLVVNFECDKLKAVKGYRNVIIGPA
Assay: Inhibition of tissue transglutaminase, hydroxamate assay (Example 29)
Type: biochemical
Settings: 0.5 mM inhibitor; 20 min preincubation at 37° C.; first block r5-r22
Where a SMILES comes first, the peptide text is derived from it. The star is where a group is joined. Cbz = O=C(OCc1ccccc1)*; ClAc = O=C(CCl)*; For = O=C*
property-measured: Inhibition of tissue transglutaminase at an inhibitor concentration of 0.5 mM (%)
// units = %; emit number, no label

These solved cases illustrate the format of a correct answer.
{"columns": ["molecule", "unit-string", "recorded-value"],
 "data": [
  ["O=COC[C@H](NC(=O)OCc1ccccc1)C(=O)NCC(=O)O [Carbobenzoxy-L-serylglycine β-formate, Carbobenzoxy-L-serylglycine β-Formate] (Cbz-Ser(For)-Gly-OH)", "%", 0],
  ["CCOC(=O)CNC(=O)[C@H](COC(C)=O)NC(=O)OCc1ccccc1 (Cbz-Ser(Ac)-Gly-OEt)", "%", 0]
]}

Let us examine a further case.
Exam item: Return Inhibition of tissue transglutaminase at an inhibitor concentration of 0.5 mM (reported value) for this molecule: CCOC(=O)CNC(=O)[C@H](COC(=O)CCl)NC(=O)OCc1ccccc1 (Cbz-Ser(ClAc)-Gly-OEt)
Marked response: 7

====

Listed here are compounds together with their documented Inhibition of tissue transglutaminase at an inhibitor concentration of 0.5 mM.
Biological target: guinea pig liver transglutaminase (Cavia cutleri, UniProt P08587)
Sequence (P08587 1-690): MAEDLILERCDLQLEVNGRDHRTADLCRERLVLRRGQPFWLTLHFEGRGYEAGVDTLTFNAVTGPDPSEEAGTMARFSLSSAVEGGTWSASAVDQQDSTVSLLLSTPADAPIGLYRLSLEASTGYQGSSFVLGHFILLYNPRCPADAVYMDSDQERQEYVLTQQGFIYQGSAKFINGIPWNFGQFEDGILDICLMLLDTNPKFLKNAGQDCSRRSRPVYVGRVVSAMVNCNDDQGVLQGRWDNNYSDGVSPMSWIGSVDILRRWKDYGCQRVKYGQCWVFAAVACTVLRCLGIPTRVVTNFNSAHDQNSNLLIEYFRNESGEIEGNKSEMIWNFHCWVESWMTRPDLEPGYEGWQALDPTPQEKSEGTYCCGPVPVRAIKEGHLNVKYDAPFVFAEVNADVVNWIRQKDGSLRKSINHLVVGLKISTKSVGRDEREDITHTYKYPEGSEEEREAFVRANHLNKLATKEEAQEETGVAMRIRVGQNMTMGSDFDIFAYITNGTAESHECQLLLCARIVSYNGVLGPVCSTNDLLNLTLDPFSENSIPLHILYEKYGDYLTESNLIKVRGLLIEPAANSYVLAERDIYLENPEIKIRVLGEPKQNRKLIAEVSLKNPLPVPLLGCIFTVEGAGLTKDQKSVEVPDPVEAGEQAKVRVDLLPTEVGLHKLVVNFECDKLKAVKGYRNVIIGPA
Experiment: Inhibition of tissue transglutaminase, hydroxamate assay (Example 29)
Assay type: biochemical
Settings: 0.5 mM inhibitor; 20 min preincubation at 37° C.; first block r5-r22
Where a SMILES comes first, the peptide text is derived from it. The star is where a group is joined. Cbz = O=C(OCc1ccccc1)*; ClAc = O=C(CCl)*; For = O=C*
// units = %; emit number, no label

These solved cases illustrate the format of a correct answer.
{"columns": ["compound", "recorded-value"],
 "data": [
  ["CC(=O)OC[C@H](NC(=O)OCc1ccccc1)C(=O)NCC(=O)O [Carbobenzoxy-L-serylglycine β-acetate, Carbobenzoxy-L-serylqlycine β-acetate] (Cbz-Ser(Ac)-Gly-OH)", 0],
  ["CCOC(=O)CNC(=O)[C@H](COC=O)NC(=O)OCc1ccccc1 (Cbz-Ser(For)-Gly-OEt)", 0],
  ["O=C(O)CNC(=O)[C@H](COC(=O)CCl)NC(=O)OCc1ccccc1 (Cbz-Ser(ClAc)-Gly-OH)", 43]
]}

Let us examine a further case.
Exam item: Retrieve Inhibition of tissue transglutaminase at an inhibitor concentration of 0.5 mM on guinea pig liver transglutaminase (Cavia cutleri, UniProt P08587); query CC(C)(C)OC(=O)CNC(=O)[C@H](CNC(N)=O)NC(=O)OCc1ccccc1
Marked response: 0

====

biological target: guinea pig liver transglutaminase (Cavia cutleri, UniProt P08587); test: Inhibition of tissue transglutaminase, hydroxamate assay (Example 29); type: biochemical; settings: 5 mM inhibitor; 20 min preincubation at 37° C.; first block r5-r22
Where a SMILES comes first, the peptide text is derived from it. The star is where a group is joined. Cbz = O=C(OCc1ccccc1)*; ClAc = O=C(CCl)*; For = O=C*
property-measured: Inhibition of tissue transglutaminase at an inhibitor concentration of 5 mM (%)
// units = %; emit number, no label

These solved cases illustrate the format of a correct answer.
{"columns": ["compound", "unit-string", "recorded-value"],
 "data": [
  ["O=C(O)CNC(=O)[C@H](COC(=O)CCl)NC(=O)OCc1ccccc1 (Cbz-Ser(ClAc)-Gly-OH)", "%", 91],
  ["CC(=O)OC[C@H](NC(=O)OCc1ccccc1)C(=O)NCC(=O)O [Carbobenzoxy-L-serylglycine β-acetate, Carbobenzoxy-L-serylqlycine β-acetate] (Cbz-Ser(Ac)-Gly-OH)", "%", 0],
  ["CC(C)(C)OC(=O)CNC(=O)[C@H](CNC(N)=O)NC(=O)OCc1ccccc1", "%", 0],
  ["CCOC(=O)CNC(=O)[C@H](COC=O)NC(=O)OCc1ccccc1 (Cbz-Ser(For)-Gly-OEt)", "%", 0],
  ["CCOC(=O)CNC(=O)[C@H](COC(=O)CCl)NC(=O)OCc1ccccc1 (Cbz-Ser(ClAc)-Gly-OEt)", "%", 76],
  ["O=COC[C@H](NC(=O)OCc1ccccc1)C(=O)NCC(=O)O [Carbobenzoxy-L-serylglycine β-formate, Carbobenzoxy-L-serylglycine β-Formate] (Cbz-Ser(For)-Gly-OH)", "%", 56]
]}

Exam item: Return Inhibition of tissue transglutaminase at an inhibitor concentration of 5 mM (reported value) for this compound: CCOC(=O)CNC(=O)[C@H](COC(C)=O)NC(=O)OCc1ccccc1 (Cbz-Ser(Ac)-Gly-OEt)
Marked response: 0
